System: SF-295
Experiment: NCI tumour cell line growth inhibition, 48 h
The source made the active and inactive calls. Cut-off read from the data, not from the text of the source: active = GI50 up to about 1.1 µM and inactive = higher.
Labels: y for active, n for inactive

* CCCCCCCCCCCc1nnc(N)o1 | n
* O=c1ccn(C2OC(CO)C(O)C2[Se]c2ccccc2)c(=O)[nH]1 (stereo not given) | n
* COc1cc2c(c(OC)c1OC)C(=O)[C@@H]1[C@H]2N1C(N)=O | n
* CCN(CC)CCC(=O)c1ccc(Oc2ccc(F)cc2)cc1 | n
* NC(=S)N/N=C\c1nccc2ccccc12 | y
* CCCCc1c2c(nc3c1CCCC3O)/C(=C/c1ccccc1)CCC2 (stereo not given) | n
* CCOC(=O)C(=Cc1ccc(Oc2ccccc2)cc1)C(=O)OCC | n
* CSC(C1c2ccccc2N(C)C2=NC(=O)N(C)C(=O)C21Cl)S(=O)(=O)c1ccc(C)cc1 (stereo not given) | n
* N#Cc1c(=O)c2ccccc2n2c1[nH]c1ccccc12 | n
* CC(=O)OCC1OC(Sc2nc(-c3ccccc3)c(C#N)c(=O)n2C2OC(COC(C)=O)C(OC(C)=O)C(OC(C)=O)C2OC(C)=O)C(OC(C)=O)C(OC(C)=O)C1OC(C)=O (stereo not given) | n

---

Let's look at some compounds and their measured GI50.
Tested on: LXFL 529
Assay: NCI tumour cell line growth inhibition, 48 h
The source made the active and inactive calls. No stated cut-off is given here; in the data, active = GI50 up to about 1.1 µM and inactive = higher.
Observable: GI50

* Cc1ccc(C)c2c1C1CCCCC3(OCCCO3)C21O (stereo unspecified) | > 100 µM (inactive)
* COC1=CC(=O)c2c(ccc3ncnc(N)c23)C1=O | 1.75 µM (inactive)
* CCOC(=O)C(=Cc1ccc(Oc2ccccc2)cc1)C(=O)OCC | 2.29 µM (inactive)
* C/C(CC(=O)CCCC(=O)Nc1ccc(Cl)cc1Cl)=N/NC(=O)CC#N | > 100 µM (inactive)
* Cc1cccc(O)c(=O)c1 | 29.9 µM (inactive)
* CCOc1ccccc1NC(=O)CSc1nnc(Cc2ccccc2)o1 | 16.6 µM (inactive)

---

Let's look at some compounds and their measured GI50.
Test system: EKVX
Assay: NCI tumour cell line growth inhibition, 48 h
Activity calls are given as the source filed them. No stated cut-off is given here; in the data, active = GI50 up to about 1.1 µM and inactive = higher. Peptide text beside a SMILES is read from it. * marks the point of attachment. Cbz = O=C(OCc1ccccc1)*; Boc = CC(C)(C)OC(=O)*; OBn = c1ccc(CO*)cc1
Observable: GI50

• COc1cc2c(c(OC)c1OC)C(=O)[C@@H]1[C@H]2N1C(N)=O = > 100 µM (inactive)
• COc1ccc(-c2coc3c4c(ccc3c2=O)OCO4)cc1OC = 38.5 µM (inactive)
• Cc1c(C(=O)CC(=O)C(=O)Nc2cccc(C(F)(F)F)c2)[n+]([O-])c2ccccc2[n+]1[O-] = 5.07 µM (inactive)
• CCN1C(=O)C(=C/C=C/c2ccc(N(CC)CC)cc2)C(=O)N(CC)C1=S = > 100 µM (inactive)
• CCc1c(CN)c(CC)c(CNC2=NCCN2)c(CC)c1CNC1=NCCN1 = > 100 µM (inactive)
• Cc1cccc(C(C)C)c1NC(=O)C(=O)CC(=O)c1sc(Nc2ccccc2Cl)nc1C = 52.2 µM (inactive)
• COc1ccccc1NC(=S)N/N=C1\C(=O)Nc2ccccc21 = 86.3 µM (inactive)
• CC(=O)O[C@H]1C[C@H]2C(=S)Nc3ccccc3C(=S)N2C1 = > 100 µM (inactive)
• CC(=O)OCC1OC(n2c(-c3ccc(C)cc3)cc(-c3ccccc3)c(C#N)c2=O)C(OC(C)=O)C(OC(C)=O)C1OC(C)=O (stereo not drawn) = > 100 µM (inactive)
• CCOC(=O)C1COc2cc(-c3cc(=O)c4ccccc4o3)ccc2O1 (stereo not drawn) = 95.1 µM (inactive)
• O=C(N/C(=C\c1ccccc1Cl)c1nc2ccccc2[nH]1)c1ccccc1 = 21.3 µM (inactive)
• c1ccc2c3nnc(c2c1)SCCSCCSc1nnc(c2ccccc12)SCCSCCS3 = > 100 µM (inactive)
• COC(=O)c1ccc(Oc2nc3ccccc3nc2-c2cccs2)cc1 = > 100 µM (inactive)
• COC(=O)C(CCCCNC(=O)OCc1ccccc1)NC(=O)C(CCC(=O)OCc1ccccc1)NC(=O)OC(C)(C)C (stereo not drawn) (Boc-Glu(OBn)-Lys(Cbz)-OMe; configuration not given here) = > 100 µM (inactive)
• CO/C(N)=C(C#N)/N=C/c1ccsc1 = 54.6 µM (inactive)
• COC1OCC(O)C(NC(=O)N(C)N=O)C1O (stereo not drawn) = > 100 µM (inactive)
• O=C(O)/C=C(/CC(=O)O)C(=O)O = 19.3 µM (inactive)
• Nc1ccc(-c2nc3ccccc3s2)cc1I = 14.9 µM (inactive)

---

Tested on: RXF 631
Assay: NCI tumour cell line growth inhibition, 48 h
Active and inactive are the calls of the source. No stated cut-off is given here; in the data, active = GI50 up to about 1.1 µM and inactive = higher.
Labels: active, inactive

- COC(=O)C1CCC(N2C(=O)CCC2C(=O)OC)=N1 (stereo not given): inactive
- COc1nc(NC2OCC(OC(C)=O)C(OC(C)=O)C2OC(C)=O)c(/N=C(\C)C(C)=O)c(=O)n1C (stereo not given): inactive
- O=c1cc(/C=C/c2ccccc2)c2ccc(O/C(=C\c3ccccc3)c3nc4ccccc4c(=O)o3)cc2o1: inactive
- N#CCCN(C1=NN(C(=O)CC(=O)Nc2ccc(Cl)cc2)C(c2ccccc2)C1)c1ccc(Cl)cc1 (stereo not given): inactive
- CCCCCC(=O)OC[n+]1ccc2c(C)c3[nH]c4ccccc4c3c(C)c2c1: active
- COC1CCC2C(NS(=O)(=O)c3ccc(C)cc3)CCCC2O1.Cc1ccc(S(=O)(=O)NC(C)(C)C=O)cc1 (stereo not given): inactive
- O=C(NO)c1ccc(O)c(O)c1: inactive
- CC(=O)OCC1OC(n2cccnc2=O)C(OC(C)=O)C1OC(C)=O (stereo not given): inactive
- O=C1CCCCCCCCCCC(=O)N2CCOCCOCCN1Cc1cccc(n1)C2: inactive
- Cc1ccc(-c2cc(=O)c3cc(C)c(C)c(C(=O)O)c3o2)cc1C: inactive

---

Tested on: RXF 393
Assay: NCI tumour cell line growth inhibition, 48 h
The source made the active and inactive calls. Rule as the data show it: active = GI50 up to about 1.1 µM and inactive = higher.
Observable: GI50

• CC(=O)Nc1ccc(CNc2cc(=O)[nH]c(=O)[nH]2)cc1 = > 100 µM (inactive)
• COc1ccccc1N1C(=O)CSC1c1cccc(Oc2ccccc2)c1 (stereo not given) = 17.8 µM (inactive)
• CC(=O)OC(C)(C)[C@@H]1CC[C@]2(C)/C=C/[C@H](C)C[C@@H](O)C3=C(C)C[C@@H](O3)C12 (stereo not given in full) = 94.6 µM (inactive)
• COC(=O)c1ccc(Oc2nc3ccccc3nc2-c2cccs2)cc1 = 4.79 µM (inactive)
• O=C(/C=C/c1ccc2ccccc2c1)NCc1ccc(C(=O)NCCc2ccccc2)cc1 = > 100 µM (inactive)

---

Let's look at some compounds and their measured GI50.
System: UACC-257
Assay: NCI tumour cell line growth inhibition, 48 h
Active and inactive are the calls of the source. No stated cut-off is given here; in the data, active = GI50 up to about 1.1 µM and inactive = higher.
Observable: GI50

* O=S(=O)(O)c1c(Cl)cc(O)c2ncccc12 | > 100 µM (inactive)
* COC(=O)[C@H](Cc1ccccc1)NP(=O)(OCCC#N)OCC1OC(n2cc(C)c(=O)[nH]c2=O)CC1N=[N+]=[N-] (stereo not given in full) | > 100 µM (inactive)
* Nc1nc(=O)[nH]c2c1cnn2Cc1ccccc1 | > 100 µM (inactive)
* C/C(=N\NC(=O)CC(=O)Nc1ccc(C)cc1)c1cc2ccccc2oc1=O | > 100 µM (inactive)
* CC1(C)CCCC2(C)[C@@H]1CC[C@@]13CC(=O)[C@@](C)(CC[C@@H]21)C3 (stereo not given in full) | 32.7 µM (inactive)

---

Tested on: U-251
Test: NCI tumour cell line growth inhibition, 48 h
Active and inactive are the calls of the source. Cut-off read from the data, not from the text of the source: active = GI50 up to about 1.1 µM and inactive = higher.
Let's look at some molecules and their measured GI50.
Observable: GI50

• CC1CC#CCOC(=O)CCCC1=O (configuration not stated) = > 100 µM (inactive)
• N=C(CC(=O)Nc1ccc(Cl)cc1)Nc1ccccc1 = > 100 µM (inactive)
• O=C1COc2cccnc2N1CCCCO = > 100 µM (inactive)
• CCn1c(=O)nc2n(-c3ccc(SC)cc3)c3ccccc3nc-2c1=O = > 100 µM (inactive)
• CS(=O)(=O)NNS(=O)(=O)c1ccc(Br)cc1 = > 100 µM (inactive)
• CCCCCCNCCc1c[nH]cn1 = > 100 µM (inactive)
• O=C1/C(=C/c2ccc3c(c2)OCCO3)CCC/C1=C\c1ccc2c(c1)OCCO2 = 14.2 µM (inactive)
• COC(=O)c1ccc2c(O)c(O)ccc2c1 = 14.4 µM (inactive)
• CC1(C)CCCC2(C)[C@@H]1CC[C@@]13CC(=O)[C@@](C)(CC[C@@H]21)C3 (some centres not stated) = 49 µM (inactive)
• COc1cc2c(cc1-c1coc3cc(O)ccc3c1=O)OCO2 [CUNEATIN] = 21.5 µM (inactive)
• O=S(=O)(O)c1c(Cl)cc(O)c2ncccc12 = > 100 µM (inactive)
• CC(=O)N(C)c1cc(NCc2ccccc2)ccc1OCc1ccccc1 = 17.4 µM (inactive)

Where do these numbers come from? They come from ChEMBL document CHEMBL1201862.
